For aldose reductase (Sus scrofa, UniProt P80276), measured IC50 is reported for the entries below.
Answer with a number only, understood to be in nM.

# molecule, measuredAttribute, testValue
rows = [
    ("O=C(O)CC1Cc2ccccc2N(Cc2nc3c(F)c(F)cc(F)c3s2)C1=O (centres unmarked)", "IC50", 9),
]

Now examine the next entry.
Enquiry: Could you tell me which IC50 is on file for O=C(O)Cc1cc2ccccc2n(Cc2nc3c(F)c(F)cc(F)c3s2)c1=O ?
Return: 9.4
